studySystem: T1, GST-Dvl2PDZ fusion protein (human, UniProt O14641 248-364)
T1 construct: range 248-364; Made with the pGEX E. coli expression system; also called GST-PDZ fusion protein; not shown: glutathione S-transferase (GST) encoded by plasmid pGEX
T1 sequence (looked up): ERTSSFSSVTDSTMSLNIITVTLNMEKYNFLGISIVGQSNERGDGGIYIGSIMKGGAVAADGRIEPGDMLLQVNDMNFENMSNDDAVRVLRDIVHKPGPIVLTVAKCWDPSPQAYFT
method: phage display selection on GST-Dvl2PDZ
quantityMeasured: binding result

> print(dat)
                         binder  assayresult
1    MMWIDGPLAS [SEQ ID NO 150]        binds
2  SAYKCYGWIDGGG [SEQ ID NO 70]        binds
3   YTDYGWIDQSG [SEQ ID NO 103]        binds
